Cited source: PubChem BioAssay (NCI)

protocol.details: NCI Yeast Anticancer Drug Screen. Data for the mlh1 rad18 strain (AID 175)
conditions: S. cerevisiae mlh1 rad18 strain growth inhibition; at 50.0 µM
This is part of a sample that, as a whole, favours compounds with a hit. Of some 79,000 tested, about 15% had one in any assay. The source made the active and inactive calls. No stated cut-off is given here; in the data, active means growth inhibition above about 70%; inactive means the rest.
Classes used: active, inactive

molecule	label
[C-]#[O+].[C-]#[O+].[C-]#[O+].[Mo].c1ccc([PH+](CC[As](c2ccccc2)c2ccccc2)CC[As](c2ccccc2)c2ccccc2)cc1	inactive
O=[N+]([O-])c1ccc2c3c(cccc13)CC2	inactive
Cc1nc(N)nc(N)c1CCCOc1ccc(NC(=O)c2cccc(S(=O)(=O)F)c2)cc1	inactive
COc1ccc(Br)c(/C=C/[N+](=O)[O-])c1	active
Cc1cc(N(CCCl)CCCl)ccc1C1N(Cc2ccc(Cl)cc2Cl)CCCN1Cc1ccc(Cl)cc1Cl	inactive
CC(=O)NC(Cc1ccc(N(CCCl)CCCl)cc1)C(=O)NC(CC(C)C)C(=O)O (stereo not drawn)	inactive
COC(CNS(=O)(=O)c1ccccc1)[CH2][Hg][O]C(C)=O (stereo not drawn)	active
C=C1CC2CC[C@@]34CC5O[C@@H]6C(O[C@H]7CC[C@H](CC(=O)OC8C(C)C9OC%10C[C@]%11(C[C@@H]%12O[C@]%13(CC(C)[C@@H]%14O[C@H](C(O)CC(O)CO)C[C@@H]%14O%13)CC(C)[C@@H]%12O%11)OC%10CC9O[C@H]8C[C@H]8OC(CC[C@@H]1O2)C[C@@H](C)C8=C)OC7[C@@H]6O3)[C@H]5O4 (stereo partly drawn)	inactive
COc1cccc(C2N(Cc3ccc(N(CCCl)CCCl)cc3C)CCCN2Cc2ccc(N(CCCl)CCCl)cc2C)c1O	inactive
O=C1C2CCC(C2)[CH]1[Hg][Cl] (stereo not drawn)	active
O=C(N/N=C(/CCN1CCCC1)CC(c1ccccc1)c1c(O)c2ccccc2oc1=O)c1ccncc1 (stereo not drawn)	active
CCCCCCOC(=O)c1ccccc1C(=O)OCCCCCC	inactive
Clc1nc(Cl)nc(Nc2ccccc2Cl)n1	active
C/C=C(\C)C(=O)OC1CCN2CC=C(COC(=O)C(O)(C(C)O)C(C)(C)O)C12 (stereo not drawn)	inactive
O=C(OCc1nc2ccccn2c1[N+](=O)[O-])N(CCCl)CCCl	inactive
Cc1cc(Cc2cc(C)c(NC(=O)C(=O)C3C(=O)NC(=S)NC3=O)c(C(C)C)c2)cc(C(C)C)c1NC(=O)C(=O)C1C(=O)NC(=S)NC1=O	inactive
O=c1cc(O)c1=O	inactive
C/C=N/Nc1ccc([N+](=O)[O-])cc1[N+](=O)[O-]	inactive
